Hey, just so you know, these numbers are from the antibiotic and cytotoxicity screens of Wong et al. (2023).

Test system: HepG2
Assay: cytotoxicity call (relative viability < 0.9)
Details: 10 µM
Screen size: about 39,000 compounds; about 3,300 (8.5%) were called active. The sample as a whole holds a higher share of actives than the screen did.
Give your call using only these classes: active, inactive

[[record]]
smiles_repr = "O=C1c2cccc(O)c2C(=O)c2c(O)cccc21"
tested_target = "HepG2"
class_assignment = "active"

[[record]]
smiles_repr = "CC(=O)N1CCN(c2ccnc3c2c(=O)n(CC(=O)NC(C)(C)C)c(=O)n3C)CC1"
tested_target = "HepG2"
class_assignment = "inactive"

[[record]]
smiles_repr = "Cc1cc(O)c2c(c1)C(=O)c1cccc(O)c1C2=O"
tested_target = "HepG2"
class_assignment = "inactive"


Outcome? C[C@H]1CN([C@@H](C)CO)C(=O)c2cc(NC(=O)Nc3ccc(C(F)(F)F)cc3)ccc2O[C@@H]1CN(C)Cc1ccccc1
inactive

Try this molecule too: O=C1c2c(O)cccc2Cc2cccc(O)c21
inactive
